Listed here are compounds together with their documented Emax.
- ASSAYED_SYSTEM: ΔF508-CFTR (Homo sapiens, UniProt P13569, DEL508-508)
- Construct: expressed in transfected cells
- Sequence (P13569 with tags, fused parts or gaps DEL508-508): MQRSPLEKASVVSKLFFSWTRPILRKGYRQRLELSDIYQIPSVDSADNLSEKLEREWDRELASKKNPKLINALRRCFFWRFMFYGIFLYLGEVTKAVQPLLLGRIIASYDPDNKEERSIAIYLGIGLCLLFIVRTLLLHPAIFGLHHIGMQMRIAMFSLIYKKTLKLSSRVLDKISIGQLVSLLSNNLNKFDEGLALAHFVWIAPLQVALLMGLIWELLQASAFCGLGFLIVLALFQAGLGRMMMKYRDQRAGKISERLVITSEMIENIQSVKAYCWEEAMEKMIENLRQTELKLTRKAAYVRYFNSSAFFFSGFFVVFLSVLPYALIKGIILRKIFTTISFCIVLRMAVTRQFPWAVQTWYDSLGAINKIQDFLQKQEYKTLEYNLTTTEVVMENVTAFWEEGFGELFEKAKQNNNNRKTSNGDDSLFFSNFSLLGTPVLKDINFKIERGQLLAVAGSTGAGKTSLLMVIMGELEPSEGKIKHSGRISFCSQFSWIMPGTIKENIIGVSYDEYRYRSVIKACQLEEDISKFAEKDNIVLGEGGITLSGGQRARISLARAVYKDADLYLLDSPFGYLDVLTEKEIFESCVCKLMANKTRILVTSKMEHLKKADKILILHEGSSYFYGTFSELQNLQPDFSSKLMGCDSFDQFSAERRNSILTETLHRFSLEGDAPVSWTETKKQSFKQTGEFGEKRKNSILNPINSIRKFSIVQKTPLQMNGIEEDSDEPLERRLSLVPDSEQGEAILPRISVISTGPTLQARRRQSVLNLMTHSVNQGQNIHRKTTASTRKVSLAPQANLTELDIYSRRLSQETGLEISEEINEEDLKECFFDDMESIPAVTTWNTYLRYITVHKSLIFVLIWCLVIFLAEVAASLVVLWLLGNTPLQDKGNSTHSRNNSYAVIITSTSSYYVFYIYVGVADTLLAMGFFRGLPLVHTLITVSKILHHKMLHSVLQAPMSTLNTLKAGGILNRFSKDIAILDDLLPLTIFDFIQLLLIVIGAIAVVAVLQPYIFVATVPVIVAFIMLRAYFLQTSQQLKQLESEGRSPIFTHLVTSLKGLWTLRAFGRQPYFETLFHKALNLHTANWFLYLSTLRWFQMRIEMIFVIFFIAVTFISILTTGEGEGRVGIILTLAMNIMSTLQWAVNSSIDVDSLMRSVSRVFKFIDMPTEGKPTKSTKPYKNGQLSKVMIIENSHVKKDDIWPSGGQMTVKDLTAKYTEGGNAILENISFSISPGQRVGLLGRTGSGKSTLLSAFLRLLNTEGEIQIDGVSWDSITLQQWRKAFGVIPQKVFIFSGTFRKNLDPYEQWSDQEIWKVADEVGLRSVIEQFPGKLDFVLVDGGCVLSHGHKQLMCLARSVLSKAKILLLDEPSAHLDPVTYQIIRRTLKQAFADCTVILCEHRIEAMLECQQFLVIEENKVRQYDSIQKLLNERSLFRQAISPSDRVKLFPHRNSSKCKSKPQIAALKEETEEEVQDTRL
- TEST_NAME: Membrane potential optical assay (FRET/VIPR), identification of correction compounds
- Format: cell-based
- CONDITION_DESCRIPTION: relative efficacy

Below, 10 compounds whose answers are already recorded.
>>> print(df.to_string())
                                   compound  experimental_result
0  CC(c1nc2ccc(Cl)cc2c(=O)n1C)N1CCN(S(=O)(=O)Cc2ccccc2)CC1 (centres unmarked) [compound 86]                < 25%
1  CCOc1nc(C(C)N2CCN(S(=O)(=O)c3ccc(Br)cc3)CC2)nc2ccccc12 (centres unmarked) [compound 228]               > 100%
2  CCCn1c(C(C)N2CCN(S(=O)(=O)c3ccc(Br)cc3)CC2)nc2ccccc2c1=O (centres unmarked) [compound 27]               > 100%
3  COc1ccc(S(=O)(=O)N2CCN(C(C)c3nc4ccccc4c(=O)n3C)CC2)cc1 (centres unmarked) [compound 6]           25 to 100%
4  Cc1ccc(C(=O)N2CCN(C(C)c3nc4cc(Cl)ccc4c(=O)n3C)CC2)cc1 (centres unmarked) [compound 120]                < 25%
5  CC(c1nc2ccccc2c(=O)n1C)N1CCN(C(=O)Nc2ccc(Cl)cc2)CC1 (centres unmarked) [compound 33]           25 to 100%
6  COc1ccc(S(=O)(=O)N2CC3CC2CN3C(C)c2nc3ccccc3c(=O)n2C)cc1 (centres unmarked) [compound 175]                < 25%
7  CC(c1nc(OC2CCCC2)c2ccccc2n1)N1CCN(S(=O)(=O)c2ccc(Cl)cc2)CC1 (centres unmarked) [compound 231]               > 100%
8  COc1ccc(S(=O)(=O)N2CCN(C(C)c3ncc(Br)c(OC4CCCC4)n3)CC2)cc1 (centres unmarked) [compound 381]               > 100%
9  COc1ccc(S(=O)(=O)N2CCN(C(C)c3nc4cc(Cl)ccc4c(=O)n3C)CC2)cc1OC (centres unmarked) [compound 100]           25 to 100%

Can you look up Emax on ΔF508-CFTR (Homo sapiens, UniProt P13569, DEL508-508) for CCOc1nc(C(C)N2CCN(S(=O)(=O)c3ccc(OC)cc3)CC2)nc2ccccc12 (centres unmarked) [compound 188] ? > 100%

Then COc1ccc(S(=O)(=O)N(C)CCNC(C)c2nc3ccccc3c(=O)n2C)cc1 (centres unmarked) [compound 211] ? < 25%

====

Listed here are compounds together with their documented Emax.
- ASSAYED_SYSTEM: ΔF508-CFTR (Homo sapiens, UniProt P13569, DEL508-508)
- Construct: expressed in transfected cells
- TEST_NAME: Membrane potential optical assay (FRET/VIPR), identification of correction compounds
- Type: cell-based
- CONDITION_DESCRIPTION: relative efficacy

Below, 5 compounds whose answers are already recorded.
>>> df
                                   compound  experimental_result
0  CC(c1nc2ccccc2c(=O)n1C)N1CCN(C(=O)Nc2ccccc2)CC1 (stereo not shown)                < 25%
1  COc1ccc(S(=O)(=O)N2CCN(C(C)c3nc(N(C)CC4OCCO4)c4ccccc4n3)CC2)cc1 (stereo not shown)           25 to 100%
2  COc1ccc(S(=O)(=O)N2CCN(C(C)c3nc(N4CCSCC4)c4ccccc4n3)CC2)cc1 (stereo not shown)               > 100%
3  CC(c1nc2ccccc2c(=O)n1C)N1CCN(S(=O)(=O)c2ccc(CC#N)cc2)CC1 (stereo not shown)           25 to 100%
4  COc1ccc(S(=O)(=O)N2CCN(C(C)c3nc(OC4CCCCC4)c4cc(F)ccc4n3)CC2)cc1 (stereo not shown)           25 to 100%

Reported Emax for CCCn1c([C@@H](C)N2CCN(S(=O)(=O)c3ccc(Br)cc3)CC2)nc2ccccc2c1=O : what is it? > 100%

Then CCCn1c(C(C)N2CCN(C(=O)Nc3cccc(C#N)c3)CC2)nc2ccccc2c1=O (stereo not shown) ? 25 to 100%

Then COc1ccc(S(=O)(=O)N2CCN(C(C)c3nc(OC4CCC(C)CC4)c4ccccc4n3)CC2)cc1 (stereo not shown) ? 25 to 100%

Then COc1ccc(S(=O)(=O)N2CCC(NC(C)c3nc4ccccc4c(=O)n3C)CC2)cc1 (stereo not shown) ? 25 to 100%

Then CCc1ccc(S(=O)(=O)N2CCN(C(C)c3nc4ccccc4c(=O)n3C)CC2)cc1 (stereo not shown) ? 25 to 100%

Then C[C@@H](c1nc(N2CCCCC2)c2ccccc2n1)N1CCN(S(=O)(=O)c2ccc(Cl)cc2)CC1 ? > 100%
